- protocol: qHTS for Inhibitors of TGF-b: Cytotox Counterscreen
- details: HepG2 CAGA-GFP viability, ATP luminescence, 18 h; series mostly up to 46.1 µM
The whole screen tested about 410,000 compounds, of which about 3,100 (0.76%) were called active. The call rests on the fitted dose curve; in most records, active means well fitted cell-killing curve with a large enough effect; inactive means no such curve, though single readings can be large or run the other way. The list comes from a sample in which actives are over-represented; it also holds close analogues and randomly drawn compounds.
Parameter call: string, one of active, inactive

Completed entries (count: 6):
>  <compound>
Brc1cccc[n+]1Cc1cccc(C[n+]2ccccc2Br)c1

>  <label_value>
inactive

$$$$
>  <compound>
COC(=O)c1ccc(OCC(O)CN(CCO)CC(O)Cn2ccc3ccccc32)cc1 (stereo unspecified)

>  <label_value>
inactive

$$$$
>  <compound>
CCOc1ccccc1NC(=O)c1ccc2c(c1)CCN2S(=O)(=O)c1ccc(C)cc1

>  <label_value>
inactive

$$$$
>  <compound>
NC(c1csc(NC(=O)Nc2cccc(C(F)(F)F)c2)n1)C1CCCCC1 (stereo unspecified)

>  <label_value>
active

$$$$
>  <compound>
CCc1ccc(C(=O)CC2(O)C(=O)N(CCc3ccccc3)c3ccc(Br)cc32)cc1 (stereo unspecified)

>  <label_value>
active

$$$$
>  <compound>
COc1cccc(CN(C)CC(O)COC(c2ccccc2)c2ccccc2C)c1 (stereo unspecified)

>  <label_value>
inactive

$$$$

Exercise: # fetch the recorded call for CC1(C)Cc2ccccc2-c2c[nH]c(=O)n21 here
Key: inactive

Exercise: Check the results log: what was the call for C=C1CCN(C(CC(C)C)C(=O)NCc2cc(OC)c(OC)c(OC)c2)S(=O)(=O)c2ccccc21 (stereo unspecified) ?
Key: inactive

Exercise: Tell me the assay call for CCCCC(=O)OC1=CN(Cc2ccccc2)S(=O)(=O)c2ccccc21 please.
Key: inactive

Exercise: Any idea what this test logged for Cc1ccc(Cn2c(CCCNC(=O)C3CCCCC3)nc3ccccc32)cc1 ?
Key: inactive

Exercise: Hey, what did the test say about CN(Cc1ccccc1)CC(O)COc1ccc(CNCc2cc3ccccc3s2)cc1 (stereo unspecified) ?
Key: active

Exercise: Just curious, what result did Cc1ccc(C)c(S(=O)(=O)n2nc(C)c(S(=O)(=O)N3CCC(C)CC3)c2C)c1 get here?
Key: inactive

Exercise: Per the records of this test, what outcome belongs to N#Cc1cc2[nH]c(=O)c(=O)[nH]c2cc1[N+](=O)[O-] ?
Key: inactive

Exercise: // outcome(item) with item = COC(=O)c1cc(NC(=O)c2cnc(SC)nc2-c2ccccc2)cc(C(=O)OC)c1
Key: inactive

Exercise: How did this test come out for COc1ccc(C2=Nn3c(nnc3-c3ccccc3OC)SC2)cc1OC1CCCC1 ?
Key: active
